- test-description: Thermostability of GDP-bound mini G proteins by differential scanning fluorimetry (DSF)
- Format: physicochemical
- condition-summary: mini-G protein alone, GDP-bound
measurement-label: Stability measured by DSF (°C)
Note: unit °C is implicit; provide only the numeric part.

molecule: Mini-Gs/i143: mini-Gs with 9 α5 helix mutations changing coupling specificity to Gi1; SEQ ID NO:111 (protein, Mini-Gs/i143) MGHHHHHHENLYFQGIEKQLQKDKQVYRATHRLLLLGADNSGKSTIVKQMRILHGGSGGSGGTSGIFETKFQVDKVNFHMFDVGGQRDERRKWIQCFNDVTAIIFVVDSSDYNRLQEALNDFKSIWNNRWLRTISVILFLNKQDLLAEKVLAGKSKIEDYFPEFARYTTPEDATPEPGEDPRVTRAKYFIRDEFLRISTASGDGRHYCYPHFTCAVDTENARRIFNDVTDIIIKMNLRDCGLF
measurement-label: Stability measured by DSF
recorded-measurement: 69.0

Here is another molecule to look at.
For Mini-Gs/q70: mini-Gs with R380K Q384L R385Q H387N Q390E E392N L394V (protein) GIEKQLQKDKQVYRATHRLLLLGADNSGKSTIVKQMRILHGGSGGSGGTSGIFETKFQVDKVNFHMFDVGGQRDERRKWIQCFNDVTAIIFVVDSSDYNRLQEALNDFKSIWNNRWLRTISVILFLNKQDLLAEKVLAGKSKIEDYFPEFARYTTPEDATPEPGEDPRVTRAKYFIRDEFLRISTASGDGRHYCYPHFTCAVDTENARRIFNDCKDIILQMNLREYNLV , write its Stability measured by DSF.
67.2

The values you see were collected from patent US11339383B2.
